target: ALK (Homo sapiens); construct: host or cells: baculovirus expression system; experiment: ALK Kinase Assay (ELISA/TRF, PLC-γ substrate); format: biochemical; conditions: ALK Kinase Inhibition; read-out: ALK Potency
Sequence (Q9UM73 19-1620): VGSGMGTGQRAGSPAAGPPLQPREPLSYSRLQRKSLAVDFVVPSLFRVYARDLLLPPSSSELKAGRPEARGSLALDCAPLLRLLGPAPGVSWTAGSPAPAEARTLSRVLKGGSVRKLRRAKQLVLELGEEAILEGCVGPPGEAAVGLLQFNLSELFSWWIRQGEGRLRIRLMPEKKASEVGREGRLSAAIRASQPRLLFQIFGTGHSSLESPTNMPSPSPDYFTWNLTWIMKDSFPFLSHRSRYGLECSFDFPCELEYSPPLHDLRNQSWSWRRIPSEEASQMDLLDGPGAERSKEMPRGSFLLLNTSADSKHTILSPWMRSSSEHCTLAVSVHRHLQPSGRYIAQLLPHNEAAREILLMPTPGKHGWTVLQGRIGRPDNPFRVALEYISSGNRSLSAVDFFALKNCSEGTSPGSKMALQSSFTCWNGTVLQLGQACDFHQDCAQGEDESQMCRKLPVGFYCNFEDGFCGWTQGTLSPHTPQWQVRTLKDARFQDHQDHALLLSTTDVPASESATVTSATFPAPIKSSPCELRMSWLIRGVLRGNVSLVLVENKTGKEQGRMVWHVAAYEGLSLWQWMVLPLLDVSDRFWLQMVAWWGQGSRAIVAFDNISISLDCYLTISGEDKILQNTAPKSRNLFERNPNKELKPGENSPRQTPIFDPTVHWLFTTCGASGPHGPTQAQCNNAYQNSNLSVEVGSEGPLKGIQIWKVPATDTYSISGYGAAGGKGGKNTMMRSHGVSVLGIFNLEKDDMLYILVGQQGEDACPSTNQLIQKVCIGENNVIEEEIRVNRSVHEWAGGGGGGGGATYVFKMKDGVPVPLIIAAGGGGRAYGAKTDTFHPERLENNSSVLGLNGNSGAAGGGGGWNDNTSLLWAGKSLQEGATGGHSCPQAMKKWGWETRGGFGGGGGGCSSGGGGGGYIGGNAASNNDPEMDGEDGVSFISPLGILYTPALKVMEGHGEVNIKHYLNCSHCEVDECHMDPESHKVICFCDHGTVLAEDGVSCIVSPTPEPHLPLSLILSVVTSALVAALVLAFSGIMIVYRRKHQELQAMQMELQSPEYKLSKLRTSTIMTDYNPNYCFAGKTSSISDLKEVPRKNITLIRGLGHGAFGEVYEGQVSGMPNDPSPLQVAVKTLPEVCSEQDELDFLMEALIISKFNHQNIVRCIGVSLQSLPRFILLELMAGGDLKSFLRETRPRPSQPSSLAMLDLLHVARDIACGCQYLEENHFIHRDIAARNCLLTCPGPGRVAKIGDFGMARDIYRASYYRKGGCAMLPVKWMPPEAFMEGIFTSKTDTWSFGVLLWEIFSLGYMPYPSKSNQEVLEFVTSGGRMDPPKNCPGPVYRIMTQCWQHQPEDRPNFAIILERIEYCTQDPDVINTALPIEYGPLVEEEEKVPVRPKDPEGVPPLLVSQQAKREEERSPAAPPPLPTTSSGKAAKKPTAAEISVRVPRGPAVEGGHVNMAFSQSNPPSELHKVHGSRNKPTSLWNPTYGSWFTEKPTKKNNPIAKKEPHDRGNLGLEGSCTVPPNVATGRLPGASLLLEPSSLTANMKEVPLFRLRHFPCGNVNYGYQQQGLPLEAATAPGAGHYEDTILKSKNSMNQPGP
Catalogue of IC50 values

A selection of reference data follows.
{"columns": ["Molecule", "IC50"],
 "data": [
  ["COCCN(c1ccccc1-c1ccc2cnc(Nc3ccc(N4CCC(N5CCOCC5)CC4)cc3OC)nn12)S(C)(=O)=O [Example 1462]", "100 to 1000 nM"],
  ["CS(=O)(=O)c1ccc(-c2ccc3cnc(-n4cnc5cnccc54)nn23)cc1 [Example 330]", "1000 to 10000 nM"],
  ["COc1ccc(-c2ccc3cnc(Nc4ccc(C5CCN(CC(N)=O)CC5)cc4)nn23)cn1 [Example 1413]", "100 to 1000 nM"],
  ["COc1ccccc1-c1ccc2cnc(Nc3cccc(C4(O)CCNCC4)c3)nn12 [Example 1565]", "< 100 nM"],
  ["CS(=O)(=O)c1ccc(-c2ccc3cnc(Nc4ccc(N5CCCCC5)cc4)nn23)cc1 [Example 61]", "> 10000 nM"],
  ["CNS(=O)(=O)c1cccc(-c2ccc3cnc(Nc4ccc(N5CCN(C)CC5)cc4)nn23)c1 [Example 366]", "100 to 1000 nM"],
  ["COc1ccc(-c2ccc3cnc(Nc4ccc5nc(CN6CCN(C)CC6)[nH]c5c4)nn23)cn1 [Example 1527]", "100 to 1000 nM"]
]}

For the molecule CN(C)S(=O)(=O)c1ccc(-c2ccc3cnc(Nc4ccc(N5CCOCC5)cc4)nn23)cc1 [Example 71] , give its reported IC50.
> 10000 nM
